Hey, just so you know, these numbers are from patent US20180044434A1.

A collection of binders and their measured OD 490/630 nm
# test.system: T1, full-length recombinant mouse PAD4 (mouse, UniProt Q9Z183 1-666)
# T1 construct: mature; Full-length recombinant
# T1 sequence (Q9Z183 whole entry): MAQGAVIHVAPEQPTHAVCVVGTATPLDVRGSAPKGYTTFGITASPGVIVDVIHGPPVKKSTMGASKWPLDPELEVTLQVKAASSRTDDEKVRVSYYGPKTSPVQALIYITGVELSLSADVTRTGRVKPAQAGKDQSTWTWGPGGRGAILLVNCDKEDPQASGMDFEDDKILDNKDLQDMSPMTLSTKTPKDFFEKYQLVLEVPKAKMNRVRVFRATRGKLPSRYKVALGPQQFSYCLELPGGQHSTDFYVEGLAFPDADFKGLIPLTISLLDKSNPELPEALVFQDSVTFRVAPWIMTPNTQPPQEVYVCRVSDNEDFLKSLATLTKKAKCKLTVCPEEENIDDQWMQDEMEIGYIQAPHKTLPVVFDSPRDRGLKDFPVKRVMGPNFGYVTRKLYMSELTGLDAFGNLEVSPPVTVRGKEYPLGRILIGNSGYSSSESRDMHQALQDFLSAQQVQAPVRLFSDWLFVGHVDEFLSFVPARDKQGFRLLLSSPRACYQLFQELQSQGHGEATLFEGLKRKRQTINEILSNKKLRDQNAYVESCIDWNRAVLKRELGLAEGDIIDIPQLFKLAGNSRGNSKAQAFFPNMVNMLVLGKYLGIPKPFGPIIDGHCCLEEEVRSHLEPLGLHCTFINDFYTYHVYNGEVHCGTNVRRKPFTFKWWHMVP
# assay: ELISA, coated mouse PAD4; antibody 6.104E-05 ug/mL
Give the value as a plain number.

Completed entries (count: 3):
binder	OD 490/630 nm
E9 (antibody, V domains shown, Chicken variable regions in a mouse chimeric antibody (IgG1); also called anti-PAD4 antibody E9) VH: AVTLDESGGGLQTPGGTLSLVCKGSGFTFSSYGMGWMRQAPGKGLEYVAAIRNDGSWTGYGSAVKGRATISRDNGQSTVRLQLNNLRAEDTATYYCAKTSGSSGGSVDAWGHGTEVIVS VL: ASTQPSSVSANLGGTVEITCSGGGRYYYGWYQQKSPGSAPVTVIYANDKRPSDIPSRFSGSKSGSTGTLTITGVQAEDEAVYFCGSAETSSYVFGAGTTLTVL	0.051
A11 (antibody, V domains shown, Chicken variable regions in a mouse chimeric antibody (IgG1); also called anti-PAD4 antibody A11) VH: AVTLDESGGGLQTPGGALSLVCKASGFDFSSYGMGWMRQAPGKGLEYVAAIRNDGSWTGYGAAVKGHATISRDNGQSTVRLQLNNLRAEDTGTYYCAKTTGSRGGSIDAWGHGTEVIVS VL: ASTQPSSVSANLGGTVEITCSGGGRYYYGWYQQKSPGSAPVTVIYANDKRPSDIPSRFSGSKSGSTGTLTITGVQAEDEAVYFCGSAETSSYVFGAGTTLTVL	0.045
H7 (antibody, V domains shown, Chicken variable regions in a mouse chimeric antibody (IgG1); also called anti-PAD4 antibody H7) VH: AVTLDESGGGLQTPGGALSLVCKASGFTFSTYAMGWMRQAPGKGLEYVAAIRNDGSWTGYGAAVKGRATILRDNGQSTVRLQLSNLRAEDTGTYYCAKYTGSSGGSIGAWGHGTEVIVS VL: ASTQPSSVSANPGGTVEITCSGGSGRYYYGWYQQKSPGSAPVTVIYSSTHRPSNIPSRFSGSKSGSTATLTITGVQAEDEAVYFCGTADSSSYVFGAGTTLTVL	0.103

What does the record list as OD 490/630 nm for G8 (antibody, V domains shown, Chicken variable regions in a mouse chimeric antibody (IgG1); also called anti-PAD4 antibody G8) VH: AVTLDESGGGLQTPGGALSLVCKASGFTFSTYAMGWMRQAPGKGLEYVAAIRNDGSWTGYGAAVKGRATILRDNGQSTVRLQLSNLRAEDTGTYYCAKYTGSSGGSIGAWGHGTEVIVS VL: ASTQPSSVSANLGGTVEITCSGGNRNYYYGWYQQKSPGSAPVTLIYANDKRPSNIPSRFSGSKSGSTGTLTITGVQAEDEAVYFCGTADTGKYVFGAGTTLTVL ?
0.122

What does the record list as OD 490/630 nm for G6 (antibody, V domains shown, Chicken variable regions in a mouse chimeric antibody (IgG1); also called anti-PAD4 antibody G6) VH: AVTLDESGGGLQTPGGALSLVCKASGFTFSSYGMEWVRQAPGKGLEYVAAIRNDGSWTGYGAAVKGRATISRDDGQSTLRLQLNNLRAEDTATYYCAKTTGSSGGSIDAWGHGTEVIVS VL: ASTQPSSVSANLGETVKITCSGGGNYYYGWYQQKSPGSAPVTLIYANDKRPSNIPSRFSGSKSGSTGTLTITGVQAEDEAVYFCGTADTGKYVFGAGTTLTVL ?
0.044

What does the record list as OD 490/630 nm for G9 (antibody, V domains shown, Chicken variable regions in a mouse chimeric antibody (IgG1); also called anti-PAD4 antibody G9) VH: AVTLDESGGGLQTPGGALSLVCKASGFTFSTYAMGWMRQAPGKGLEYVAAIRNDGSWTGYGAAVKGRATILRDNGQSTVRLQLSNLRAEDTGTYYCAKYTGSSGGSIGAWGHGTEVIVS VL: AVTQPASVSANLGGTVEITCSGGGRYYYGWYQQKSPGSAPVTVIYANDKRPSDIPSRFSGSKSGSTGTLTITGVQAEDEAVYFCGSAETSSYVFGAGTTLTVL ?
0.079
